Where do the numbers come from? From patent US10183950B2.

compounds and their reported pIC50
Biological target: kinase-domain human PKCι (Homo sapiens, UniProt P41743)
Construct: Recombinant, kinase-domain human PKCι is expressed and purified in-house; made in house
Sequence (P41743 254-522 limits assumed): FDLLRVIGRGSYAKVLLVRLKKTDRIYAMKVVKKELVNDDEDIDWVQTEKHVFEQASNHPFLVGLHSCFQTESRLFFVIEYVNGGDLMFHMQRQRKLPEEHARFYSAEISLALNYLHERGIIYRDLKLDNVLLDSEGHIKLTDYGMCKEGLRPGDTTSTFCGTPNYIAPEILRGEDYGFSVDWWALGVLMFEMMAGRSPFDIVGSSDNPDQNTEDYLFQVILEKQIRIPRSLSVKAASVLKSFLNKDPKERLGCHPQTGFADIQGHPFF
Experiment: PKCι IC50 IMAP fluorescence polarisation assay, kinase-domain enzyme
Type: biochemical
Settings: kinase domain PKCi at 2 μM ATP; read-out: IC50 in IMAP assay against kinase domain PKCi (Activity)
pIC50: −log10 of the molar value.
reported-endpoint: pIC50

{"input-smiles": "c1ccc(CN2CCN(c3nc(-c4ccncc4)nc4sc5c(c34)CCCC5)CC2)cc1", "measured-value": "4.40 to 5.00"}
{"input-smiles": "c1n[nH]cc1-c1nc(N2CCNCC2)c2c3c(sc2n1)CCCC3", "measured-value": "6.00 to 7.00"}
{"input-smiles": "C[C@@H](N)CNc1nc(-c2ccncc2)nc2sc3c(c12)CCCCCC3", "measured-value": "5.00 to 6.00"}
{"input-smiles": "CC[C@H](N)CNc1nc(-c2ccncc2)nc2sc3c(c12)CCCC3", "measured-value": "5.00 to 6.00"}
{"input-smiles": "N[C@@H](CNc1nc(-c2ccncc2)nc2sc3c(c12)CCCC3)Cc1c[nH]c2ccccc12", "measured-value": "5.00 to 6.00"}
{"input-smiles": "N[C@@H](COc1nc(-c2ccncc2)nc2sc3c(c12)CCCC3)Cc1ccc2ccccc2c1", "measured-value": "4.40 to 5.00"}
{"input-smiles": "N[C@H](COc1nc(-c2ccncc2)nc2sc3c(c12)CCCC3)Cc1cccc(F)c1", "measured-value": "5.00 to 6.00"}
{"input-smiles": "Brc1cnccc1CN1CCN(c2nc(-c3ccncc3)nc3sc4c(c23)CCCC4)CC1", "measured-value": "4.40 to 5.00"}
